Provenance of the data: ChEMBL document CHEMBL3244088

test system: W256; assay: Antitumor activity against […] allografted in Sprague-Dawley rat assessed as increase in survival rate at 2.5 mg/kg/day, ip relative to control; format: functional; conditions: route intraperitoneal
measure_name: T/C (%)

CCOC(=O)C1(C)CC=CC1=O (stereo not drawn) : 103
C=C1C(=O)O[C@@H]2C[C@@H](C)[C@@H]3C=CC(=O)[C@@]3(C)[C@@H](O)[C@H]12 : 316
CC1(COC(=O)CCCCCCCCC(=O)OCC2(C)CC=CC2=O)CC=CC1=O (stereo not drawn) : 108
O=C1C=CCC1 : 188
CC1(CO)CC=CC1=O (stereo not drawn) : 100
N[C@@H](Cc1ccc(N(CCCl)CCCl)cc1)C(=O)O : 317
CC1(COC(=O)/C=C/c2ccccc2)CC=CC1=O (stereo not drawn) : 136
CC(=O)OCC1(C)CC=CC1=O (stereo not drawn) : 105
